Each entry below carries its recorded solubility kinetic.
Details: buffer; pH 7.4; 200.0 µM

C/C(Cc1ccccc1)=N\NC(=O)CNC(=O)c1ccccc1O = > 48.8 µg/mL

Enquiry: Recorded solubility kinetic for CCCc1nnc(NC(=O)CCC(=O)N2CCCCC2)s1 , please?
Return: > 46.6 µg/mL

----------
Details: buffer; pH 7.4; 200.0 µM
Each entry below carries its recorded log10 of solubility kinetic.
For clarity, the numbers are log10 values of solubility kinetic expressed in µg/mL.

CN(C(=O)CSc1nc2ccccc2c(=O)n1-c1ccccc1Cl)C1CCS(=O)(=O)C1 (stereo not drawn) = 1.85
COc1ccc(NC(=O)Cc2cccs2)cc1S(=O)(=O)N1CCCCC1 = 1.65
Cn1c(=O)n(Cc2ccccc2Br)c2ccccc21 = 0.89
O=C(CCS(=O)(=O)Cc1ccccc1F)NCc1ccccc1Cl = 0.63
CCC(=O)N1CCN=C1SCc1cc(C)ccc1C = 1.55
Cc1ccc(CN2CCc3[nH]c(=S)[nH]c(=O)c3C2)cc1 = 1.02
Cc1ccc(NC(=O)c2noc3c2CCC3)cc1C = 0.67
C=CCn1c(NCc2ccc(OC)cc2O)nc2ccccc21 = 1.58

Enquiry: Recorded log10 of solubility kinetic for Cc1cc(C(=O)COC(=O)c2ccco2)c(C)n1Cc1ccco1 , please?
Return: 0.40

Enquiry: Recorded log10 of solubility kinetic for COc1ccccc1C(=O)NC(CCSC)C(=O)Nc1ccc(C)c(S(=O)(=O)N2CCOCC2)c1 (stereo not drawn) , please?
Return: 1.28

Enquiry: Recorded log10 of solubility kinetic for CC1=C(C)/C(=N\OS(=O)(=O)c2ccc(C)cc2)C=CC1=O , please?
Return: 0.54

Enquiry: Recorded log10 of solubility kinetic for COc1ccc(CC(=O)NC(=S)Nc2cccc(CO)c2)cc1 , please?
Return: 1.69

Enquiry: Recorded log10 of solubility kinetic for Nc1ccncc1N , please?
Return: 1.09

Enquiry: Recorded log10 of solubility kinetic for S=C(Nc1ccccc1)N1CCC(Cc2ccccc2)CC1 , please?
Return: 1.16

----------
Details: buffer; pH 7.4; 200.0 µM
Each entry below carries its recorded log10 solubility kinetic.
For clarity, the numbers are log10 values of solubility kinetic expressed in µg/mL.

Nc1cccc(-c2nc3ccc(C(=O)c4ccccc4)cc3[nH]2)c1 = 1.31

Enquiry: Recorded log10 solubility kinetic for CN1C(=O)C(C)(C)N(C(=O)c2cccc([N+](=O)[O-])c2)c2ccccc21 , please?
Return: 1.47

Enquiry: Recorded log10 solubility kinetic for O=C(O)CCN1C(=O)C2C3c4ccccc4C(c4ccccc43)[C@@H]2C1=O (stereo partly drawn) , please?
Return: 1.67

Enquiry: Recorded log10 solubility kinetic for Cc1ccc(SCC(=O)OCC(=O)NCCc2ccc(S(N)(=O)=O)cc2)c(C)c1 , please?
Return: 1.71

Enquiry: Recorded log10 solubility kinetic for NC(=O)COC(=O)c1cccnc1Nc1ccccc1F , please?
Return: 1.56

----------
Each entry below carries its recorded solubility kinetic.
Details: buffer; pH 7.4; 200.0 µM

Worked cases, solubility kinetic given:
CCOC(=O)N1CCN(CCC(=O)Nc2ccccc2)CC1 = 32.2 µg/mL
CC(=O)c1ccc(NC(=O)Cc2ccsc2)cc1 = > 38.9 µg/mL
COc1cc(Cl)cc(/C=C/c2ccc3cccc(O)c3n2)c1OC = < 0.7 µg/mL
COc1cc(OC)c(CNC2CCCCCC2)cc1Br = > 51.3 µg/mL
O=C(CSc1cccc[n+]1[O-])N1CCc2ccccc21 = > 43 µg/mL
CCc1c(C#N)c(=O)[nH]c(=O)n1-c1ccccc1 = > 36.2 µg/mL
O=C(NC1CCCc2ccccc21)c1ccc2c(c1)OCO2 (configuration not stated) = 11.6 µg/mL
O=C(NC(=S)N1CCN(c2ccc(O)cc2)CC1)c1ccco1 = > 49.7 µg/mL
O=[N+]([O-])c1cccnc1NCCc1c[nH]c2ccccc12 = 0.3 µg/mL
CC(C)(CC(=O)O)CC(=O)Nc1ccccc1Oc1ccccc1 = > 49.1 µg/mL

Enquiry: Recorded solubility kinetic for CCCC(=O)Nc1ccc2c(c1)nc(CCNC(=O)c1ccco1)n2C , please?
Return: > 53.2 µg/mL

Enquiry: Recorded solubility kinetic for Oc1ccc(-c2nccc(-c3ccc(Br)cc3)n2)cc1 , please?
Return: 0.4 µg/mL
